List of growth values.
# Tested on: A549/ATCC NSCLC
# measurement-notes: NCI-60 one-dose screen, 48 h (100 = growth as untreated, 0 = no growth, -100 = all killed)
# condition-notes: 10 µM unless noted
Compounds without any hit were thinned out: in the full panel of roughly 83,000, 20% have a hit.

compound	display-unit	growth
Cc1cc2c(cc1C)N(C(=O)CCl)CC(=O)N2	%	88.1
CCO/C=N/C1=C(C#N)C(c2ccc(F)cc2)c2sc3c(F)cccc3c2O1 (stereo unspecified)	%	40.6
Nc1c(C(=O)Nc2cccc(Cl)c2)sc2nc3c(cc12)CCCC3	%	81.7
CCCCNC(=O)c1cc([N+](=O)[O-])cc(C2CCCCC2)c1O	%	32
NC(=O)c1cnc(Nc2cccc(N)c2)nc1NCCCNC(=O)C1CCC1	%	87.7
C=C1CC[C@@H]2[C@](C)(COC(C)=O)[C@H](OC(C)=O)CC[C@@]2(C)[C@@H]1CC(Nc1ccc(S(=O)(=O)NC(C)=O)cc1)C1=CCOC1=O (stereo partly specified)	%	27.9
